# study-system: T1, human CD137 on DO11.10-hCD137 cells (human, UniProt Q07011 24-255)
# T1 construct: full-length human CD137 over-expressed on DO11.10 cells by lentiviral transduction; also called cell surface-expressed human CD137
# T1 sequence (Q07011 24-255): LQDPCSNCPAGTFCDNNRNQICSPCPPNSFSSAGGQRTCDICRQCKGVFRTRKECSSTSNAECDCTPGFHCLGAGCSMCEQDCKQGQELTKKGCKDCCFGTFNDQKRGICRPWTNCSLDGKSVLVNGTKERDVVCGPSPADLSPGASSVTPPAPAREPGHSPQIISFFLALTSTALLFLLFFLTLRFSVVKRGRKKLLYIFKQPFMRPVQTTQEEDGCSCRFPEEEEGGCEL
# procedure-details: flow cytometry on DO11.10-hCD137 cells, GMFI vs concentration
pEC50: −log10 of the molar value.
Recorded pEC50 values for a group of binders are listed next.
value-kind: pEC50

G1AA/FS30-10 (antibody, human IgG1, kappa, L234A L235A, V domains shown, human IgG1 with LALA mutation in CH2; also called FS30-10 mAb) VH: EVQLLESGGGLVQPGGSLRLSCAASGFTFSSYDMSWVRQAPGKGLEWVSDIDPTGSKTDYADSVKGRFTISRDNSKNTLYLQMNSLRAEDTAVYYCARDLMVYGFDYWGQGTLVTVSS VL: EIVLTQSPGTLSLSPGERATLSCRASQSVSSSYLAWYQQKPGQAPRLLIYGASSRATGIPDRFSGSGSGTDFTLTISRLEPEDFAVYYCQQSYSYPVTFGQGTKVEIKR | 9.49
G1AA/FS30-16 (antibody, human IgG1, kappa, L234A L235A, V domains shown, human IgG1 with LALA mutation in CH2; also called FS30-16 mAb) VH: EVQLLESGGGLVQPGGSLRLSCAASGFTFSNYAMHWVRQAPGKGLEWVSTIDPTDGATNYADSVKGRFTISRDNSKNTLYLQMNSLRAEDTAVYYCARSKYYTYMQYVALDYWGQGTLVTVSS VL: EIVLTQSPGTLSLSPGERATLSCRASQSVSSSYLAWYQQKPGQAPRLLIYGASSRATGIPDRFSGSGSGTDFTLTISRLEPEDFAVYYCQQGSRFFPITFGQGTKVEIKR | 9.68
G1AA/FS30-5 (antibody, human IgG1, kappa, L234A L235A, V domains shown, human IgG1 with LALA mutation in CH2; also called FS30-5 mAb) VH: EVQLLESGGGLVQPGGSLRLNCAASGFTFSSYAMSWVRQAPGKGLEWVSAISGSGGSTYYADSVKGRFTISRDNSKNTLYLQMNSLRAEDTAVYYCARSYDKYWGSSMYSGMDYWGQGTLVTVSS VL: EIVLTQSPGTLSLSPGERATLSCRASQSVSSSYLAWYQQKPGQAPRLLIYGASSRATGIPDRFSGSGSGTDFTLTISRLEPEDFAVYYCQQYYSYYPVTFGQGTKVEIKR | 9.62
G1AA/FS30-15 (antibody, human IgG1, kappa, L234A L235A, V domains shown, human IgG1 with LALA mutation in CH2; also called FS30-15 mAb) VH: EVQLLESGGGLVQPGGSLRLSCAASGFTFSGSGMSWVRQAPGKGLEWVSIIYSTNGDTDYADSVKGRFTISRDNSKNTLYLQMNSLRAEDTAVYYCARDFYDIANYYAFDYWGQGTLVTVSS VL: EIVLTQSPGTLSLSPGERATLSCRASQSVSSSYLAWYQQKPGQAPRLLIYGASSRATGIPDRFSGSGSGTDFTLTISRLEPEDFAVYYCQQAYYDPITFGQGTKVEIKR | 9.82
